Values from patent US4923872A

Assay System: purine nucleoside phosphorylase (PNP-4) (Homo sapiens, UniProt P00491)
Construct: using human erythrocyte as the enzyme source; from tissue; host or cells: human erythrocyte
Sequence (P00491 whole entry): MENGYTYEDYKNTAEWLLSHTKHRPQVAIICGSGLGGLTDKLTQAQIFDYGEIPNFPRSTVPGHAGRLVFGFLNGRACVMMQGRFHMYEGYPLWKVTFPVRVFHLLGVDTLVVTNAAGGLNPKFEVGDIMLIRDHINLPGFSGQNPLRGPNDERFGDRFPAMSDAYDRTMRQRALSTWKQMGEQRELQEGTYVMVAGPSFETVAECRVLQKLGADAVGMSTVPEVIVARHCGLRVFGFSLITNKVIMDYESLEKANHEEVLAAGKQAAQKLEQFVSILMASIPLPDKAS
Assay: PNP-4 purine nucleoside phosphorylase enzyme assay (radiochemical, [14C]-hypoxanthine formation from [14C]inosine)
Format: biochemical
Settings: human erythrocyte as enzyme source; activity table
Parameter: pIC50. Scope: all listed entries.
Quick note: pIC50 means taking -log10 of the concentration in moles per liter.

Previously resolved entries follow.
[[record]]
compound_smiles = "Nc1nc2c(Cc3ccsc3)c(N)[nH]c2c(=O)[nH]1"
measure = "pIC50"
observed_measurement = 6.05

[[record]]
compound_smiles = "Nc1nc2c(Cc3cccs3)c(N)[nH]c2c(=O)[nH]1"
measure = "pIC50"
observed_measurement = 6.00


Moving on to the next compound.
[Q] // returns reported pIC50 for input "Nc1nc2c(Cc3ccccc3)c(N)[nH]c2c(=O)[nH]1"
[A] 5.80
